- TESTED_SYSTEM: T1, human MSLN-FL-his protein (human, UniProt Q13421 296-580)
- T1 construct: made in HEK293E cells, purified on nickel column; also called hMSLN-FL-his; human MSLN full-length protein; not shown: His tag
- T1 sequence (Q13421 other isoform, or with tags, fused parts or gaps): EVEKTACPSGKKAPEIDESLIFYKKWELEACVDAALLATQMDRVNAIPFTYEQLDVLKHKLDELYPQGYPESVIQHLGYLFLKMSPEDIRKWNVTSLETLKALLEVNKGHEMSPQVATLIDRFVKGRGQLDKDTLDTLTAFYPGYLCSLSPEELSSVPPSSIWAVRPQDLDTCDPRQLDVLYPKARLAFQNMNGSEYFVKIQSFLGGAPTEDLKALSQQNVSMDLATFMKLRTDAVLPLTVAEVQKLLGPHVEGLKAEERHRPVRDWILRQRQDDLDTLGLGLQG
- METHOD_DESCRIPTION: competitive ELISA; row F8-5.15; note: test concentration or dose not given here
// competition rate lookup, one value per entry
Just the number in %, nothing appended.

Recorded results for 2 binders are shown here.
Req: Please report the recorded competition rate for S009-F8-15.19 (antibody, human IgG1, kappa, V domains shown, human-murine chimeric antibody, human IgG1/kappa constant regions) VH: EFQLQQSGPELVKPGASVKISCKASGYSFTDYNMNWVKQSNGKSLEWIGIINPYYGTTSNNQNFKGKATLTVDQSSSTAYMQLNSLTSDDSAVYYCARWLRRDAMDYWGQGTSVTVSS VL: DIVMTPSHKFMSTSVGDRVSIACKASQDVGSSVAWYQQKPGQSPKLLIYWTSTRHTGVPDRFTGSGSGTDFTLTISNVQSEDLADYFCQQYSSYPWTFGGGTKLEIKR .
Resp: 99.3

Req: Please report the recorded competition rate for S009-F8-18.9 (antibody, human IgG1, kappa, V domains shown, human-murine chimeric antibody, human IgG1/kappa constant regions) VH: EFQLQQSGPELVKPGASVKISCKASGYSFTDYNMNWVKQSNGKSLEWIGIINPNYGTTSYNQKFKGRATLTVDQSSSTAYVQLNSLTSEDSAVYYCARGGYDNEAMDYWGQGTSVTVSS VL: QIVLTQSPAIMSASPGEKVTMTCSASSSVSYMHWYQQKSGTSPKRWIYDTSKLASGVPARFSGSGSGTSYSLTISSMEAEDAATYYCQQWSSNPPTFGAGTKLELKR .
Resp: 99.7

Next:
Req: Please report the recorded competition rate for S009-F8-4.5 (antibody, human IgG1, kappa, V domains shown, human-murine chimeric antibody, human IgG1/kappa constant regions) VH: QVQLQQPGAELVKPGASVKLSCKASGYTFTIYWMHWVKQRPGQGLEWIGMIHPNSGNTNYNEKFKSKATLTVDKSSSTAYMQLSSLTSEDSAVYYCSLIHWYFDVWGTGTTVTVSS VL: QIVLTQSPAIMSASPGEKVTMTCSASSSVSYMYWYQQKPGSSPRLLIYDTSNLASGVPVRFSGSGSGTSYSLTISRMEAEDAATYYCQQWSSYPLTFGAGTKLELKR .
Resp: 100

Sourced from patent US20250250357A1
